procedure-text: acute toxicity after oral administration to mice (LD50)
assay-setup: mouse, in vivo, 15 days mortality
Task for the reader: assign each of the following molecules its reported LD50 at 360 h.
Dear colleague, please return just the value in mg/kg, with no unit written.

Would you kindly share the measured LD50 at 360 h for Cc1ccc(C(Cc2c[nH]cn2)c2ccccc2)cc1C (stereo not drawn) [Compound 22] ?
155

Would you kindly share the measured LD50 at 360 h for Fc1cccc(F)c1C(Cc1c[nH]cn1)c1ccccc1 (stereo not drawn) [Compound 27] ?
173

Would you kindly share the measured LD50 at 360 h for Cc1ccccc1C(Cc1c[nH]cn1)c1ccccc1 (stereo not drawn) [Compound 12] ?
155

Would you kindly share the measured LD50 at 360 h for c1ccc(C(Cc2c[nH]cn2)(c2ccccc2)c2ccccc2)cc1 [Compound 8] ?
1.75

Would you kindly share the measured LD50 at 360 h for Cc1ccc(C(Cc2c[nH]cn2)c2ccccc2)cc1 (stereo not drawn) [Compound 21] ?
350

Would you kindly share the measured LD50 at 360 h for COC(c1c[nH]c(C)n1)C(c1ccccc1)c1ccccc1 (stereo not drawn) [Compound 26] ?
350

Would you kindly share the measured LD50 at 360 h for CCCC(c1c[nH]cn1)C(c1ccccc1)c1ccccc1 (stereo not drawn) [Compound 19, 4(5)-[2-(1,1-diphenyl)pentyl]imidazole] ?
350

Would you kindly share the measured LD50 at 360 h for Fc1ccccc1C(Cc1c[nH]cn1)c1ccccc1 (stereo not drawn) [Compound 28] ?
94

Would you kindly share the measured LD50 at 360 h for c1ccc(C(Cc2c[nH]cn2)c2ccccc2)cc1 [Compound 1, 4(5)-(2,2-diphenylethyl)-imidazole] ?
155

Would you kindly share the measured LD50 at 360 h for Fc1ccc(C(Cc2c[nH]cn2)c2ccccc2F)cc1 (stereo not drawn) [Compound 15] ?
155

Would you kindly share the measured LD50 at 360 h for Clc1ccccc1C(Cc1c[nH]cn1)c1ccccc1 (stereo not drawn) [Compound 13] ?
172

Would you kindly share the measured LD50 at 360 h for Fc1ccc(C(Cc2c[nH]cn2)c2ccccc2)cc1 (stereo not drawn) [Compound 14] ?
155

Would you kindly share the measured LD50 at 360 h for COc1ccc(C(Cc2c[nH]cn2)c2ccccc2)cc1 (stereo not drawn) [Compound 17] ?
350

Would you kindly share the measured LD50 at 360 h for Cc1cccc(C(Cc2c[nH]cn2)c2ccccc2)c1 (stereo not drawn) [Compound 9] ?
155

Would you kindly share the measured LD50 at 360 h for CCCC(=C(c1ccccc1)c1ccccc1)c1c[nH]cn1 [Compound 18] ?
270
